Values from BindingDB's records for doi:10.1016/j.bmc.2012.08.058

Molecular target: D(3) dopamine receptor (Homo sapiens, UniProt P35462)
Sequence (P35462 as listed by the source): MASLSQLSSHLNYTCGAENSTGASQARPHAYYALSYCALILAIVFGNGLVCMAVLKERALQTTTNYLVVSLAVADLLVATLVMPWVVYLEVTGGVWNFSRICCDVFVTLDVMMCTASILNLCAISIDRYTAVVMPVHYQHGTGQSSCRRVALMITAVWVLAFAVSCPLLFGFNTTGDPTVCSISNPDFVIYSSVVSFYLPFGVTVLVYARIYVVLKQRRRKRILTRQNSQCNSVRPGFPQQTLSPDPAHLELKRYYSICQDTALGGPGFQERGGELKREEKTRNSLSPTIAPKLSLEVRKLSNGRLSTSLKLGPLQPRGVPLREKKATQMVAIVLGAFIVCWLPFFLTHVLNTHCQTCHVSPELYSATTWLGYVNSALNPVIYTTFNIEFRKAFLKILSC
REPORTED_METRIC: Ki (nM)
Give bare numbers, in nM.

Any idea what its Ki is? The compound is "CCCN1C[C@H](c2ccc(O)cc2)C[C@@H]2c3cc(O)c(O)cc3CC[C@H]21" 1.1

----------
Molecular target: D(2) dopamine receptor (Homo sapiens, UniProt P14416)
Sequence (P14416 whole entry): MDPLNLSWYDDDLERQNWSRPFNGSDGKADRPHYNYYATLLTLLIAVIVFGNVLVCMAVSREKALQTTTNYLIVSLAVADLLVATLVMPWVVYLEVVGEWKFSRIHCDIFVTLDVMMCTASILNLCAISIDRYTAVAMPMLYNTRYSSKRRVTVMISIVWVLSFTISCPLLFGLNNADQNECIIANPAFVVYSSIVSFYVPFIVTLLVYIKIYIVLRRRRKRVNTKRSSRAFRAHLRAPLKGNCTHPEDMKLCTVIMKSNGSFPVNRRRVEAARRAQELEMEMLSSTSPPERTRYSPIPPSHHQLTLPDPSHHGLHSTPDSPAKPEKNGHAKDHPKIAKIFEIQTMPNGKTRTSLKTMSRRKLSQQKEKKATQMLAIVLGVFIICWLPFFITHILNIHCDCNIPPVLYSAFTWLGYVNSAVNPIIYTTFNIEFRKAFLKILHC
REPORTED_METRIC: Ki (nM)
Numbers only, in nM.

Any idea what its Ki is? The molecule is "CCCN1C[C@H](c2ccc(O)cc2)C[C@@H]2c3cc(O)c(O)cc3CC[C@H]21" 160

----------
Molecular target: D(3) dopamine receptor (Homo sapiens, UniProt P35462)
Experiment: Agonist activity at dopamine D3 receptor in human U2OS-D3 cells assessed as EA-tagged beta-arrestin translocation after 1.5 hrs by luminescence based beta-galactosidase assay
REPORTED_METRIC: pEC50
Answers are plain numbers, as −log10 of the molar value.

Notebook entry, D(3) dopamine receptor (Homo sapiens, UniProt P35462) assay: pEC50 of "CCCN1C[C@H](c2ccc(O)cc2)C[C@@H]2c3cc(O)c(O)cc3CC[C@H]21" = ? 7.34
